Each recorded value in this set is attributed to PubChem BioAssay (NCI).

- System: LXFL 529 NSCLC
- METHOD_SUMMARY: NCI tumour cell line growth inhibition, 48 h
Provide the reported TGI of each item.

Ask: # value lookup — system LXFL 529 NSCLC, readout TGI, item `Cc1ccccc1-n1c2nc(=O)n(C)c(=O)c-2nc2ccccc21`
Result: 26.3 µM

Ask: Same for COC(=O)C(Cc1nc2ccccc2nc1C)/C(=N\NC(N)=O)C(=O)Nc1cccc([N+](=O)[O-])c1 (stereo not drawn)
Result: > 100 µM

Ask: Same for `N/N=c1\c2ccccc2c2cc3c(cc12)/c(=N/N)c1ccccc13`
Result: > 100 µM

Ask: Same for CC(=O)OC1COC(N2C(=O)C(=O)c3cc(Br)ccc32)C(OC(C)=O)C1OC(C)=O (stereo not drawn)
Result: > 100 µM

Ask: Same for `O=C(Nc1cccc2c1[nH]c1c(-c3ccccc3)nccc12)c1ccccc1[N+](=O)[O-]`
Result: > 100 µM

Ask: Same for Cc1ccc(S(=O)OCC23CC4CC(CC(C4)C2)C3)cc1 (stereo not drawn)
Result: > 100 µM

Ask: Same for CC#CC1C2CCCC1(CSc1ccccc1)NC(=O)O2 (stereo not drawn)
Result: > 100 µM

Ask: Same for CC(=O)[CH-]C(=O)c1ccccc1.CC(=O)[CH-]C(=O)c1ccccc1.C[C@]12CCC(=O)C=C1CC[C@@H]1C2CC[C@@]2(C)C1CC[C@@H]2[O-].C[C@]12CCC(=O)C=C1CC[C@@H]1C2CC[C@@]2(C)C1CC[C@@H]2[O-].Cl.[Ti+4] (stereo partly drawn)
Result: 87.3 µM

---

- Tested on: A549 NSCLC
- METHOD_SUMMARY: NCI tumour cell line growth inhibition, 48 h
Where a SMILES comes first, the peptide text is derived from it. The star is where a group is joined. Fmoc = O=C(OCC1c2ccccc2-c2ccccc21)*; Boc = CC(C)(C)OC(=O)*
REPORTED_METRIC: TGI

Ask: Field request: TGI | item: `COc1ccc2nc3ccc(OC)cc3c(SCc3ccccc3)c2c1`
Result: > 100 µM

Ask: Same for `C[C@@H](NC(=O)c1ccc(CNC(=O)/C=C/c2cccc(Oc3ccccc3)c2)cc1)c1ccccc1`
Result: > 57.8 µM

Ask: Same for CN1CN(c2ccccc2)C2(CCN(CCC3COc4ccccc4O3)CC2)C1=O (stereo not given)
Result: > 100 µM

Ask: Same for `O=C1CC(=O)NC(=NNS(=O)(=O)c2ccccc2)N1`
Result: > 100 µM

Ask: Same for `CCOc1cc2oc(C)cc(=O)c2c(OC)c1C=Nc1ccc(Cn2c(C)nc3ccccc32)cc1`
Result: > 100 µM

Ask: Same for `Cc1cc(C)nc(NS(=O)(=O)c2ccc(Nc3c4ccc(Cl)cc4nc4c(C(=O)NCCN(C)C)cccc34)cc2)n1`
Result: > 100 µM

Ask: Same for `O=C(Nc1n[nH]c2nnc(-c3cccnc3)cc12)C1CC1`
Result: > 25 µM

Ask: Same for `Cc1ccccc1-n1c2nc(=O)n(C)c(=O)c-2nc2ccccc21`
Result: 35.4 µM

Ask: Same for N#C[Se]CCCNS(=O)(=O)C1CC2C=CC1C2 (stereo not given)
Result: 2.63 µM

Ask: Same for `COc1cc(-c2[o+]c3cc(O)cc(O)c3cc2O)cc(O)c1O`
Result: > 100 µM

Ask: Same for CC#CC1C2CCCC1(CSc1ccccc1)NC(=O)O2 (stereo not given)
Result: > 100 µM

Ask: Same for `O=C1C=CC(=O)c2c1ccc1c3ccccc3n(-c3ccccc3[N+](=O)[O-])c21`
Result: > 64.8 µM

Ask: Same for `O=c1cn[nH]c(=S)n1/N=C/c1c[nH]c2ccccc12`
Result: > 100 µM

Ask: Same for CC1=CC(N2C(=O)C(C)=CC2O)NC1=O (stereo not given)
Result: > 100 µM

Ask: Same for `O=c1ssc(Cl)c1Cl`
Result: > 10 µM

Ask: Same for `Cc1ccc2c(c1)S(=O)(=O)c1ccc3ccccc3c1N2`
Result: > 100 µM

Ask: Same for `Clc1ccc(-c2cc(-c3ccccc3)nc(NCCNc3ccnc4cc(Cl)ccc34)n2)cc1`
Result: 3.45 µM

Ask: Same for `CCN(CC)Cc1c(/C=C\c2cc(OC)c(OC)c(OC)c2)ccc(OC)c1O`
Result: > 100 µM

Ask: Same for CC1C(OC2O[C@@H]3O[C@@]4(C)CC[C@H]5[C@H](C)CC[C@@H](C2C)[C@@]35O4)O[C@@H]2O[C@@]3(C)CC[C@H]4[C@H](C)CC[C@@H]1[C@@]24O3 (stereo not given in full)
Result: > 50 µM

Ask: Same for COc1ccc(C2CC3(c4ccccc4)ON=C(c4ccccc4)N3c3ccccc3S2)cc1 (stereo not given)
Result: > 100 µM

Ask: Same for `Cc1cccc(-c2cc(=O)c3c(C)cc(C)nc3[nH]2)c1`
Result: > 100 µM

Ask: Same for CC(C)(C)OC(=O)NCCCCC(NC(=O)C(Cc1c[nH]c2ccccc12)NC(=O)OCC1c2ccccc2-c2ccccc21)C(=O)N1CCCC1C(=O)NCC(N)=O (stereo not given) (Fmoc-WK(Boc)PG-NH2; configuration not given here)
Result: > 100 µM

Ask: Same for `CC(C)NC(=O)CCN(C(=O)O)S(=O)(=O)c1ccc(NC(=O)c2ccccc2)cc1`
Result: > 71.2 µM

Ask: Same for `Ic1cc2c(cc1C1SCCCS1)OCO2`
Result: > 100 µM

Ask: Same for `COC(=O)C1=C(C(=O)OC)SC2(S1)C(C(=O)OC)=C(C(=O)OC)Sc1c2ssc1=Nc1ccc(Cl)cc1`
Result: 3.13 µM

Ask: Same for `COc1ccc(Nc2cc(C)nc(NCCCNc3ccnc4cc(Cl)ccc34)n2)cc1`
Result: 3.86 µM

Ask: Same for `C/C(=N\Nc1nc2cccnc2s1)c1ccccn1`
Result: > 34.8 µM

Ask: Same for NCC1OC(OC2C(CO)OC(OC3C(O)C(N)CC(N)C3OC3OC(CO)C(O)CC3N)C2O)C(N)C(O)C1OC1OC(CO)C(O)C(O)C1O (stereo not given)
Result: > 50 µg/mL

Ask: Same for CCOC1Oc2ccccc2-c2nc(SC)ncc21 (stereo not given)
Result: > 100 µM

Ask: Same for CC(C)Cc1cc2c(cc1O)CCC1C2CC[C@@]2(C)C1CC[C@@H]2O (stereo not given in full)
Result: 21.4 µM
